system_under_test: L858R/T790M/C797S EGFR (Homo sapiens, UniProt P00533, C797S/L858R/T790M)
Construct: expressed in transfected cells; host or cells: H1975 clone #25 (lentiviral over-expression, endogenous EGFR knocked out by sgRNA)
Sequence (P00533 25-1210 T790M/C797S/L858R): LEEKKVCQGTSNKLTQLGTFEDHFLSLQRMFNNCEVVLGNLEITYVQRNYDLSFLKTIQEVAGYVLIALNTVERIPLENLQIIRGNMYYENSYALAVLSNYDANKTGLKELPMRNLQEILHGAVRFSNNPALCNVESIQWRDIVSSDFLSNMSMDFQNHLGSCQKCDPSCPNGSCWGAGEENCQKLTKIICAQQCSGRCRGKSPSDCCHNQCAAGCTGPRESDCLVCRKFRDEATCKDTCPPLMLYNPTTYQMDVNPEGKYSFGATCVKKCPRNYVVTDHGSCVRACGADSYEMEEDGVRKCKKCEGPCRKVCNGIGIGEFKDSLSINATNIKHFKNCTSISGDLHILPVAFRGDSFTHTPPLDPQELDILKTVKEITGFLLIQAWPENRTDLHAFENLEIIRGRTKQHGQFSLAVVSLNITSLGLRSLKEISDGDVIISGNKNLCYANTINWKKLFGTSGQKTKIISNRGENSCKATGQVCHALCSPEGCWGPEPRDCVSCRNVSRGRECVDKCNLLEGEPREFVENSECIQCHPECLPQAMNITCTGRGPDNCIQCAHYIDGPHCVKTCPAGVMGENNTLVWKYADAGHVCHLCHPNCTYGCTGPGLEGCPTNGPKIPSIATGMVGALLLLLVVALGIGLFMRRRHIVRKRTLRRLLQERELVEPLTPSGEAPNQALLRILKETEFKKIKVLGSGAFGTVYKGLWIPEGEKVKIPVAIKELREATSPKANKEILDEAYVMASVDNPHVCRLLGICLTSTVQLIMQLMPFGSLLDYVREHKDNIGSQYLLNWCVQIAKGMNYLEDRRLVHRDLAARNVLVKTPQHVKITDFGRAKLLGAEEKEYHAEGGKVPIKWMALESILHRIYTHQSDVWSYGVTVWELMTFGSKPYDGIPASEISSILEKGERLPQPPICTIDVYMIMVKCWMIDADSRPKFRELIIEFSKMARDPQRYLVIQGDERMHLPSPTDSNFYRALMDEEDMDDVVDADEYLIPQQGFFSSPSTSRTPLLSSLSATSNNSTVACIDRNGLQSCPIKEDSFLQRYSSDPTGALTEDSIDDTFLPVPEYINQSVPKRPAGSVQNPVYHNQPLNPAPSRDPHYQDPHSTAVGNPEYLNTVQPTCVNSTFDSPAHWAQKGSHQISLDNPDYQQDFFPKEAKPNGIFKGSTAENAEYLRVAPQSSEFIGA
test_summary: EGFR degradation HTRF assay in H1975-clone #25 (LTC) cells
Format: cell-based
test_conditions: NCI-H1975, H1975 # 25-LTC (L858R/T790M/C797S), 16h treatment, maximum percentage of degradation
Quick rule for you: Dmax at 90% or higher means T, lower means F.

molecule	category
Cc1cc2cc(n1)-c1cnn(C)c1OCCC[C@@H](C)CN1/C(=N/C2=O)Nc2ccc(C(=O)N(C)[C@@H]3CCN(CCc4cc(F)c([C@H]5CCC(=O)NC5=O)c(F)c4)C[C@@H]3F)cc21	T
Cc1cc2cc(n1)-c1cnn(C)c1OCCC[C@@H](C)CN1/C(=N/C2=O)Nc2ccc(CN3CCN(C(=O)[C@@H]4CCN(c5cc(F)c([C@H]6CCC(=O)NC6=O)c(F)c5)C4)CC3)cc21	F
CO[C@@H]1CN(CCc2cc(F)c([C@H]3CCC(=O)NC3=O)c(F)c2)CC[C@@H]1NC(=O)c1ccc2c(c1)N1C[C@H](C)CCCOc3c(cnn3C)-c3cc(cc(C)n3)C(=O)/N=C/1N2	T
Cc1cc2cc(n1)-c1cnn(C)c1OCCC[C@@H](C)CN1/C(=N/C2=O)Nc2ccc(CN3CCN(C[C@H]4CCN(c5cc(F)c([C@H]6CCC(=O)NC6=O)c(F)c5)C4)CC3)cc21	F
Cc1cc2cc(n1)-c1cnn(C)c1OCCC[C@@H](C)CN1/C(=N/C2=O)Nc2ccc(N3C[C@H](C)N(C4CCN(c5cc(F)c([C@H]6CCC(=O)NC6=O)c(F)c5)CC4)C[C@H]3C)cc21	F
Cc1cc2cc(n1)-c1cnn(C)c1OCCC[C@@H](C)CN1/C(=N/C2=O)Nc2ccc(CN3CC4CC(C3)N4C(=O)[C@@H]3CCN(c4cc(F)c([C@H]5CCC(=O)NC5=O)c(F)c4)C3)cc21	F
Cc1cc2cc(n1)-c1cnn(C)c1OCCC[C@@H](C)CN1/C(=N/C2=O)Nc2ccc(C(=O)N(C)C3CCN(CCc4cc(F)c([C@H]5CCC(=O)NC5=O)c(F)c4)CC3(C)C)cc21 (stereo partly shown)	F

* * *

system_under_test: L858R/T790M/C797S EGFR (Homo sapiens, UniProt P00533, C797S/L858R/T790M)
Construct: expressed in transfected cells; host or cells: H1975 clone #25 (lentiviral over-expression, endogenous EGFR knocked out by sgRNA)
test_summary: EGFR degradation HTRF assay in H1975-clone #25 (LTC) cells
Type: cell-based
test_conditions: NCI-H1975, H1975 # 25-LTC (L858R/T790M/C797S), 16h treatment, maximum percentage of degradation
Text: H1975-clone #28(Del19/T790M/C797S, or abbr: DTC), H1975-clone #23(Del19/C797S, or abbr: DC), H1975-clone #25(L858R/T790M/C797S, or abbr: LTC) and H1975-clone #8 (L858R/C797S, or abbr: LC). EGFR-Del19:T790M/C797S, EGFR-Del19/C797S, EGFR-L858R/T790M/C797S and EGFR-L858R/C797S were stably expressed in H1975 cell lines by lentivirus-mediated over-expression, respectively. […]
Measured Dmax, listed per entry for reference.

molecule	Dmax / %
Cc1cc2cc(n1)-c1cnn(C)c1OCCC[C@@H](C)CN1/C(=N/C2=O)Nc2cc(C)c(CN3CCN(CC4CN(c5cc(F)c([C@H]6CCC(=O)NC6=O)c(F)c5)C4)CC3)cc21 [Example 147]	81.4
Cc1cc2cc(n1)-c1cnn(C)c1OCCC[C@@H](C)CN1/C(=N/C2=O)Nc2ccc(C(=O)N3CCC4(CC3)CN(C(=O)C3CN(c5cc(F)c([C@H]6CCC(=O)NC6=O)c(F)c5)C3)C4)cc21 [Example 221]	94
Cc1cc2cc(n1)-c1cnn(C)c1OCCC[C@@H](C)CN1/C(=N/C2=O)Nc2ccc(NC3CN(C4CCN(c5cc(F)c([C@H]6CCC(=O)NC6=O)c(F)c5)CC4)C3)cc21 [Example 459]	84.1
Cc1cc2cc(n1)-c1cnn(C)c1OCCC[C@@H](C)CN1/C(=N/C2=O)Nc2ccc(N3CCN(C4CCN(c5cc(F)c([C@H]6CCC(=O)NC6=O)c(F)c5)CC4)C(=O)C3)cc21 [Example 425]	92.7
Cc1cc2cc(n1)-c1cnn(C)c1OCCC[C@@H](C)CN1/C(=N/C2=O)Nc2ccc(C(=O)N(C)[C@@H]3CCN(CCc4cc(F)c([C@H]5CCC(=O)NC5=O)c(F)c4)[C@@H](C)C3)cc21 [Example 258]	88.2
Cc1cc2cc(n1)-c1cnn(C)c1OCCC[C@@H](C)CN1/C(=N/C2=O)Nc2ccc(CN3CCN(C(=O)[C@@H]4CCN(c5cc(F)c([C@H]6CCC(=O)NC6=O)c(F)c5)C4)CC3)c(F)c21 [Example 59]	82
Cc1cc2cc(n1)-c1cnn(C)c1OCC[C@H]1C[C@@H]1CN1/C(=N/C2=O)Nc2ccc(N3CCN(C4CCN(c5cnc(C6CCC(=O)NC6=O)cc5C)CC4)CC3)cc21 (stereo partly shown) [Example 463]	91.8
Cc1cc2cc(n1)-c1cnn(C)c1OCCC[C@@H](C)CN1/C(=N/C2=O)Nc2ccc(CN3CCC4(CC3)CCN(C(=O)C3CN(c5cc(F)c([C@H]6CCC(=O)NC6=O)c(F)c5)C3)CC4)cc21 [Example 12]	94.3
Cc1cc2cc(n1)-c1cnn(C)c1OCCC[C@@H](C)CN1/C(=N/C2=O)Nc2ccc(CN3CCN(C(=O)[C@@H]4CCN(c5cc(F)c([C@H]6CCC(=O)NC6=O)c(F)c5)C4(C)C)C[C@@H]3C)cc21 [Example 190]	82.2
Cc1cc2cc(n1)-c1cnn(C)c1OCCC[C@@H](C)CN1/C(=N/C2=O)Nc2ccc(N3CCN(CCNc4cc(F)c([C@H]5CCC(=O)NC5=O)c(F)c4)[C@H](CC#N)C3)cc21 [Example 442]	84.4
Cc1cc2cc(n1)-c1cnn(C)c1OCCC[C@@H](C)CN1/C(=N/C2=O)Nc2ccc(N3CCC(C(=O)N4CCN(c5cc(F)c([C@H]6CCC(=O)NC6=O)c(F)c5)CC4)CC3)cc21 [Example 333]	86.1
Cc1cc2cc(n1)-c1cnn(C)c1OCCC[C@@H](C)CN1/C(=N/C2=O)Nc2ccc(C(=O)N3CCC4(CC3)CN(CCc3cc(F)c([C@H]5CCC(=O)NC5=O)c(F)c3)C4)cc21 [Example 310]	87.8
Cc1cc2cc(n1)-c1cnn(C)c1OCCC[C@@H](C)CN1/C(=N/C2=O)Nc2ccc(N3CCN([C@H]4C[C@H](Nc5cc(F)c([C@H]6CCC(=O)NC6=O)c(F)c5)C4)CC3)cc21 (single isomer, unassigned) [Example 444]	89
Cc1cc2cc(n1)-c1cnn(C)c1OCCC[C@@H](C)CN1/C(=N/C2=O)Nc2ccc(N3CCN(C4CCN(c5ccc(C6CCC(=O)NC6=O)nc5C)CC4)[C@@H](CC#N)C3)cc21 (stereo partly shown) [Example 456]	93.2
Cc1cc2cc(n1)-c1cnn(C)c1OCCC[C@@H](C)CN1/C(=N/C2=O)Nc2ccc(C(=O)N(C)[C@@H]3CCN(CCc4cc(F)c([C@H]5CCC(=O)NC5=O)c(F)c4)[C@H](C)C3)cc21 [Example 268]	89.8
Cc1cc2cc(n1)-c1cnn(C)c1OCCC[C@@H](C)CN1/C(=N/C2=O)Nc2ccc(C(=O)N(C)C3C[C@H]4CN(CCc5cc(F)c([C@H]6CCC(=O)NC6=O)c(F)c5)C[C@@H]4C3)cc21 [Example 293]	86.3
Cc1cc2cc(n1)-c1cnn(C)c1OCCC[C@@H](C)CN1/C(=N/C2=O)Nc2ccc(CN3CCN(C(=O)[C@@H]4CCN(c5ccc(F)c6c5n(C)c(=O)n6C5CCC(=O)NC5=O)C4)CC3)cc21 (stereo partly shown) [Example 211]	85.1
Cc1cc2cc(n1)-c1cnn(C)c1OCCCCCN1/C(=N/C2=O)Nc2ccc(C(=O)N(C)C3CCN(CCc4cc(F)c([C@H]5CCC(=O)NC5=O)c(F)c4)CC3)cc21 [Example 238]	93.2
Cc1cc2cc(n1)-c1cnn(C)c1OCCC[C@@H](C)CN1/C(=N/C2=O)Nc2ccc(N3CCN(CCc4ccc(C5CCC(=O)NC5=O)nc4C)CC3)cc21 (stereo partly shown) [Example 393]	89.8

* * *

system_under_test: L858R/T790M/C797S EGFR (Homo sapiens, UniProt P00533, C797S/L858R/T790M)
Construct: expressed in transfected cells; host or cells: H1975 clone #25 (lentiviral over-expression, endogenous EGFR knocked out by sgRNA)
test_summary: EGFR degradation HTRF assay in H1975-clone #25 (LTC) cells
Assay type: cell-based
test_conditions: H1975 # 25-LTC (L858R/T790M/C797S), 16h treatment, HTRF

compound	system_under_test	unit_annotation	DC50
Cc1cc2cc(n1)-c1cnn(C)c1OCCC[C@@H](C)CN1/C(=N/C2=O)Nc2ccc(C(=O)N[C@H]3CCN(CCc4cc(F)c([C@H]5CCC(=O)NC5=O)c(F)c4)CC3(F)F)cc21	L858R/T790M/C797S EGFR (Homo sapiens, UniProt P00533, C797S/L858R/T790M)	nM	0.535
Cc1cc2cc(n1)-c1cnn(C)c1OCC[C@H]1C[C@@H]1CN1/C(=N/C2=O)Nc2ccc(N3CCN(C4CCN(c5ccc(C6CCC(=O)NC6=O)nc5C)CC4)CC3)cc21 (some centres unmarked)	L858R/T790M/C797S EGFR (Homo sapiens, UniProt P00533, C797S/L858R/T790M)	nM	0.472
Cc1cc2cc(n1)-c1cnn(C)c1OCCC[C@@H](C)CN1/C(=N/C2=O)Nc2ccc(N(C)C3CCN(C(=O)[C@@H]4CCN(c5cc(F)c([C@H]6CCC(=O)NC6=O)c(F)c5)C4)CC3)cc21	L858R/T790M/C797S EGFR (Homo sapiens, UniProt P00533, C797S/L858R/T790M)	nM	0.954
Cc1cc2cc(n1)-c1cnn(C)c1OCCC[C@@H](C)CN1/C(=N/C2=O)Nc2ccc(CN3CCN(CCc4cc(F)c([C@H]5CCC(=O)NC5=O)c(F)c4)[C@H](C)C3)cc21	L858R/T790M/C797S EGFR (Homo sapiens, UniProt P00533, C797S/L858R/T790M)	nM	0.6
Cc1cc2cc(n1)-c1cnn(C)c1OCCC[C@@H](C)CN1/C(=N/C2=O)Nc2ccc(C(=O)N(C)[C@H]3CCN(CCNc4cc(F)c([C@H]5CCC(=O)NC5=O)c(F)c4)C[C@H]3F)cc21	L858R/T790M/C797S EGFR (Homo sapiens, UniProt P00533, C797S/L858R/T790M)	nM	0.614
